- PROTOCOL SUMMARY: WHO-TDR: Cytotoxicity
- Type: toxicity, cell-based
- CONDITION PARAMETERS: human, MRC5 cells
READOUT: IC50 (µg/mL)
Give the value in µg/mL but do not write µg/mL after it.

Input line: For the molecule O=C(CN1CCN(c2nccn2-c2cccc(Cl)c2)CC1)N1CCc2ccccc21 , give its reported IC50.
Output line: 14.2

Input line: For the molecule O=S(=O)(c1cccc(Cl)c1)N1CCN(c2ccc(Nc3ccncc3)nn2)CC1 , give its reported IC50.
Output line: 12.9

Input line: For the molecule NC(=O)c1cc(-c2ccccc2)sc1NC(=O)C1COc2ccccc2O1 (configuration not stated) , give its reported IC50.
Output line: 1.92

Input line: For the molecule CN(C)CCCN(C(=O)c1nc2ccccc2s1)c1nc2c(Cl)cccc2s1 , give its reported IC50.
Output line: 0.526

Input line: For the molecule Oc1ccc(Br)cc1/C=N/Nc1ncnc2[nH]cnc12 , give its reported IC50.
Output line: 0.364

Input line: For the molecule CC1CCN(C(C)CNC(=O)Nc2ccccc2C(F)(F)F)CC1 (configuration not stated) , give its reported IC50.
Output line: 7.77

Input line: For the molecule CN(C)CCCN(C(=O)c1ccc2c(c1)CCCC2)c1nc2ccc(Br)cc2s1 , give its reported IC50.
Output line: 2.1

Input line: For the molecule COc1ccc(Cl)c2sc(N(CCCN(C)C)C(=O)c3ccco3)nc12 , give its reported IC50.
Output line: 4.17

Input line: For the molecule CS(=O)(=O)c1ccc(CC(=O)Nc2nc(-c3ccc(Cl)s3)cs2)cc1 , give its reported IC50.
Output line: 1.53

Input line: For the molecule O=C(CCS(=O)(=O)c1ccccc1)Nc1nc(-c2cccc3ccccc23)cs1 , give its reported IC50.
Output line: 1.67

====

- Test system: Trypanosoma brucei brucei
- PROTOCOL SUMMARY: WHO-TDR: Human African Trypanosomiasis (HAT)
- Type: functional, organism-based
- CONDITION PARAMETERS: Squib-427
Under this convention, true (1) denotes IC50 strictly below 5 µg/mL and false (0) denotes IC50 at or above 5 µg/mL.

Input line: Given CC1(C)COc2ccc(NS(=O)(=O)c3cccc4ccccc34)cc2NC1=O , is recorded IC50 strictly lower than 5 µg/mL?
Output line: false (0)

Input line: Given CCN(CC)c1cc(C)nc(Nc2ccc(NC(=O)c3cc4ccccc4oc3=O)cc2)n1 , is recorded IC50 strictly lower than 5 µg/mL?
Output line: false (0)

Input line: Given CN(CC1CCCO1)S(=O)(=O)c1ccc(C(=O)Nc2cccc(-c3nc4ccccc4o3)c2)cc1 (stereo not drawn) , is recorded IC50 strictly lower than 5 µg/mL?
Output line: true (1)

Input line: Given O=C(Nc1nc2c(Cl)ccc(Cl)c2s1)C1=COCCO1 , is recorded IC50 strictly lower than 5 µg/mL?
Output line: false (0)

Input line: Given O=C(Cc1cccs1)Nc1cccc(-c2ccc3nnc(-c4cccnc4)n3n2)c1 , is recorded IC50 strictly lower than 5 µg/mL?
Output line: true (1)

Input line: Given COc1ccc(Cl)cc1S(=O)(=O)Nc1ccc2c(c1)CCC(=O)N2CCC(C)C , is recorded IC50 strictly lower than 5 µg/mL?
Output line: false (0)

Input line: Given O=C(COc1ccccc1)Oc1ccc2nc(N3CCN(c4ccccc4)CC3)sc2c1 , is recorded IC50 strictly lower than 5 µg/mL?
Output line: false (0)

Input line: Given Cc1ccc2sc(N(Cc3cccnc3)C(=O)CSc3ccccc3)nc2c1C , is recorded IC50 strictly lower than 5 µg/mL?
Output line: false (0)

Input line: Given CCN(c1ccccc1)S(=O)(=O)c1ccc(C(=O)Nc2sc3c(c2C(=O)NC)CCCC3)cc1 , is recorded IC50 strictly lower than 5 µg/mL?
Output line: false (0)

Input line: Given COc1ccccc1C(=O)NCCSc1c(-c2ccccc2)[nH]c2ccccc12 , is recorded IC50 strictly lower than 5 µg/mL?
Output line: true (1)

Input line: Given O=C(Cc1csc(SCc2ccc(Cl)cc2)n1)NCCC1=CCCCC1 , is recorded IC50 strictly lower than 5 µg/mL?
Output line: true (1)

Input line: Given COc1cccc(-c2cc(CC(=O)NCCC(C)C)no2)c1 , is recorded IC50 strictly lower than 5 µg/mL?
Output line: false (0)

Input line: Given Fc1cccc2sc(Nc3nc4c(s3)CCCC4)nc12 , is recorded IC50 strictly lower than 5 µg/mL?
Output line: false (0)

Input line: Given CC(C)(C)c1ccc(-c2csc(NC(=O)c3ccc4ncsc4c3)n2)cc1 , is recorded IC50 strictly lower than 5 µg/mL?
Output line: true (1)

Input line: Given CN(C)CCCN(C(=O)c1ccc(S(=O)(=O)N(C)C2CCCCC2)cc1)c1nc2c(F)cccc2s1 , is recorded IC50 strictly lower than 5 µg/mL?
Output line: false (0)

Input line: Given Cc1cc(-c2nnc(NC(=O)CSc3ccc(F)cc3)o2)nn1C , is recorded IC50 strictly lower than 5 µg/mL?
Output line: false (0)

Input line: Given Cc1nc2sc(C)c(C)n2c(=O)c1NC(=O)CC(c1ccccc1)c1ccccc1 , is recorded IC50 strictly lower than 5 µg/mL?
Output line: false (0)

Input line: Given O=C(Cc1csc(NC(=O)c2ccc[nH]c2=O)n1)Nc1ccc(Cl)cc1 , is recorded IC50 strictly lower than 5 µg/mL?
Output line: false (0)

Input line: Given O=C(c1cccc(F)c1)N(CCCn1ccnc1)c1nc2ccc(F)cc2s1 , is recorded IC50 strictly lower than 5 µg/mL?
Output line: true (1)

Input line: Given O=C(NCCOc1ccc2nnc(-c3ccccc3)n2n1)c1ccccc1C(F)(F)F , is recorded IC50 strictly lower than 5 µg/mL?
Output line: false (0)

Input line: Given CC(C)CN1C(=O)C(C)(C)COc2cc(NS(=O)(=O)c3ccccc3Br)ccc21 , is recorded IC50 strictly lower than 5 µg/mL?
Output line: true (1)

Input line: Given CCOc1ccc2nc(NC(=O)CS(=O)(=O)c3ccc(Cl)cc3)sc2c1 , is recorded IC50 strictly lower than 5 µg/mL?
Output line: false (0)

Input line: Given O=C(Nc1nnc(-c2ccc(Br)s2)o1)C1CCCN1S(=O)(=O)c1cccs1 (stereo not drawn) , is recorded IC50 strictly lower than 5 µg/mL?
Output line: false (0)

Input line: Given O=C(Cc1csc(NS(=O)(=O)c2ccc(Cl)cc2)n1)Nc1ccc(F)c(F)c1 , is recorded IC50 strictly lower than 5 µg/mL?
Output line: false (0)

Input line: Given NC(=O)c1ccc(NC(=O)c2c[nH]c(=O)n(-c3ccc(F)cc3)c2=O)cc1 , is recorded IC50 strictly lower than 5 µg/mL?
Output line: false (0)

Input line: Given Cc1ccc(S(=O)(=O)N2CCCc3cc(NC(=O)Oc4ccccc4)ccc32)cc1 , is recorded IC50 strictly lower than 5 µg/mL?
Output line: true (1)

Input line: Given CN(C)CCCN(C(=O)c1ccc(N(C)C)cc1)c1nc2ccc(F)cc2s1 , is recorded IC50 strictly lower than 5 µg/mL?
Output line: true (1)

Input line: Given O=C(CC1CSc2nccc(=O)n21)Nc1ccc(Cl)c(Cl)c1 (stereo not drawn) , is recorded IC50 strictly lower than 5 µg/mL?
Output line: false (0)

Input line: Given c1ccc2c(CCNc3[nH]cnc4ncnc3-4)c[nH]c2c1 , is recorded IC50 strictly lower than 5 µg/mL?
Output line: false (0)

Input line: Given Cc1ccc(S(=O)(=O)N(CC(O)CNCc2ccco2)c2ccc(F)cc2)cc1 (stereo not drawn) , is recorded IC50 strictly lower than 5 µg/mL?
Output line: false (0)

Input line: Given O=C(NCCc1c[nH]c2ccccc12)c1n[nH]c2ccccc12 , is recorded IC50 strictly lower than 5 µg/mL?
Output line: false (0)

Input line: Given COc1ccccc1OCC(=O)Nc1nc(CSCc2ccc(F)cc2)cs1 , is recorded IC50 strictly lower than 5 µg/mL?
Output line: false (0)

Input line: Given O=C(Nc1nc(-c2ccncc2)cs1)C1CCCN(S(=O)(=O)c2ccc(Cl)s2)C1 (stereo not drawn) , is recorded IC50 strictly lower than 5 µg/mL?
Output line: true (1)

Input line: Given Cc1ccc(NC(=O)c2oc3ccccc3c2NC(=O)CC(c2ccccc2)c2ccccc2)cc1C , is recorded IC50 strictly lower than 5 µg/mL?
Output line: false (0)

Input line: Given CCOc1ccc(N2CC(CNS(=O)(=O)c3cccc(C(F)(F)F)c3)CC2=O)cc1 (stereo not drawn) , is recorded IC50 strictly lower than 5 µg/mL?
Output line: false (0)

Input line: Given CCOC(=O)c1oc2ccccc2c1NC(=O)c1cc(C)no1 , is recorded IC50 strictly lower than 5 µg/mL?
Output line: false (0)

Input line: Given CS(=O)(=O)N1CCCCC1C(=O)Nc1nc2c(Cl)c(Cl)ccc2s1 (stereo not drawn) , is recorded IC50 strictly lower than 5 µg/mL?
Output line: false (0)

Input line: Given Cc1cc(C)c(S(=O)(=O)N2CCN(c3ccc(Nc4ccncc4)nn3)CC2)cc1C , is recorded IC50 strictly lower than 5 µg/mL?
Output line: true (1)

Every entry's value here was drawn from ChEMBL document CHEMBL2093137.
